protocol.description: Clearance in Cynomolgus monkey at 1 mg/kg, iv
Type: ADME, organism-based, Macaca fascicularis
condition.details: in vivo
metric: clearance (mL/min/kg)
Value expressed in mL/min/kg; do not type the unit.

Please fill in: clearance reported for CC(C)n1ncnc1-c1cn2c(n1)-c1ccc(O[C@@H](C)C(N)=O)cc1OCC2 = 13

* * *

protocol.description: Apparent permeability from apical to basolateral side in MDCK cells
Assay type: ADME, cell-based, Canis lupus familiaris
condition.details: dog
metric: Papp A→B (×10⁻⁶ cm/s)
Value expressed in ×10⁻⁶ cm/s; do not type the unit.

Please fill in: Papp A→B reported for CC(C)n1ncnc1-c1cn2c(n1)-c1ccc(O[C@@H](C)C(N)=O)cc1OCC2 = 13

* * *

protocol.description: Oral bioavailability in Sprague-Dawley rat at 5 mg/kg
Assay type: ADME, organism-based
condition.details: in vivo
metric: bioavailability
Number first, unit second.

Please fill in: bioavailability reported for CC(C)n1ncnc1-c1cn2c(n1)-c1ccc(O[C@@H](C)C(N)=O)cc1OCC2 = 120%
